Target: CBP (Homo sapiens, UniProt Q92793)
Construct: endogenous in cells; host or cells: 22Rv1 (ATCC CRL-2505) human prostate cancer cells
Sequence (Q92793 whole entry): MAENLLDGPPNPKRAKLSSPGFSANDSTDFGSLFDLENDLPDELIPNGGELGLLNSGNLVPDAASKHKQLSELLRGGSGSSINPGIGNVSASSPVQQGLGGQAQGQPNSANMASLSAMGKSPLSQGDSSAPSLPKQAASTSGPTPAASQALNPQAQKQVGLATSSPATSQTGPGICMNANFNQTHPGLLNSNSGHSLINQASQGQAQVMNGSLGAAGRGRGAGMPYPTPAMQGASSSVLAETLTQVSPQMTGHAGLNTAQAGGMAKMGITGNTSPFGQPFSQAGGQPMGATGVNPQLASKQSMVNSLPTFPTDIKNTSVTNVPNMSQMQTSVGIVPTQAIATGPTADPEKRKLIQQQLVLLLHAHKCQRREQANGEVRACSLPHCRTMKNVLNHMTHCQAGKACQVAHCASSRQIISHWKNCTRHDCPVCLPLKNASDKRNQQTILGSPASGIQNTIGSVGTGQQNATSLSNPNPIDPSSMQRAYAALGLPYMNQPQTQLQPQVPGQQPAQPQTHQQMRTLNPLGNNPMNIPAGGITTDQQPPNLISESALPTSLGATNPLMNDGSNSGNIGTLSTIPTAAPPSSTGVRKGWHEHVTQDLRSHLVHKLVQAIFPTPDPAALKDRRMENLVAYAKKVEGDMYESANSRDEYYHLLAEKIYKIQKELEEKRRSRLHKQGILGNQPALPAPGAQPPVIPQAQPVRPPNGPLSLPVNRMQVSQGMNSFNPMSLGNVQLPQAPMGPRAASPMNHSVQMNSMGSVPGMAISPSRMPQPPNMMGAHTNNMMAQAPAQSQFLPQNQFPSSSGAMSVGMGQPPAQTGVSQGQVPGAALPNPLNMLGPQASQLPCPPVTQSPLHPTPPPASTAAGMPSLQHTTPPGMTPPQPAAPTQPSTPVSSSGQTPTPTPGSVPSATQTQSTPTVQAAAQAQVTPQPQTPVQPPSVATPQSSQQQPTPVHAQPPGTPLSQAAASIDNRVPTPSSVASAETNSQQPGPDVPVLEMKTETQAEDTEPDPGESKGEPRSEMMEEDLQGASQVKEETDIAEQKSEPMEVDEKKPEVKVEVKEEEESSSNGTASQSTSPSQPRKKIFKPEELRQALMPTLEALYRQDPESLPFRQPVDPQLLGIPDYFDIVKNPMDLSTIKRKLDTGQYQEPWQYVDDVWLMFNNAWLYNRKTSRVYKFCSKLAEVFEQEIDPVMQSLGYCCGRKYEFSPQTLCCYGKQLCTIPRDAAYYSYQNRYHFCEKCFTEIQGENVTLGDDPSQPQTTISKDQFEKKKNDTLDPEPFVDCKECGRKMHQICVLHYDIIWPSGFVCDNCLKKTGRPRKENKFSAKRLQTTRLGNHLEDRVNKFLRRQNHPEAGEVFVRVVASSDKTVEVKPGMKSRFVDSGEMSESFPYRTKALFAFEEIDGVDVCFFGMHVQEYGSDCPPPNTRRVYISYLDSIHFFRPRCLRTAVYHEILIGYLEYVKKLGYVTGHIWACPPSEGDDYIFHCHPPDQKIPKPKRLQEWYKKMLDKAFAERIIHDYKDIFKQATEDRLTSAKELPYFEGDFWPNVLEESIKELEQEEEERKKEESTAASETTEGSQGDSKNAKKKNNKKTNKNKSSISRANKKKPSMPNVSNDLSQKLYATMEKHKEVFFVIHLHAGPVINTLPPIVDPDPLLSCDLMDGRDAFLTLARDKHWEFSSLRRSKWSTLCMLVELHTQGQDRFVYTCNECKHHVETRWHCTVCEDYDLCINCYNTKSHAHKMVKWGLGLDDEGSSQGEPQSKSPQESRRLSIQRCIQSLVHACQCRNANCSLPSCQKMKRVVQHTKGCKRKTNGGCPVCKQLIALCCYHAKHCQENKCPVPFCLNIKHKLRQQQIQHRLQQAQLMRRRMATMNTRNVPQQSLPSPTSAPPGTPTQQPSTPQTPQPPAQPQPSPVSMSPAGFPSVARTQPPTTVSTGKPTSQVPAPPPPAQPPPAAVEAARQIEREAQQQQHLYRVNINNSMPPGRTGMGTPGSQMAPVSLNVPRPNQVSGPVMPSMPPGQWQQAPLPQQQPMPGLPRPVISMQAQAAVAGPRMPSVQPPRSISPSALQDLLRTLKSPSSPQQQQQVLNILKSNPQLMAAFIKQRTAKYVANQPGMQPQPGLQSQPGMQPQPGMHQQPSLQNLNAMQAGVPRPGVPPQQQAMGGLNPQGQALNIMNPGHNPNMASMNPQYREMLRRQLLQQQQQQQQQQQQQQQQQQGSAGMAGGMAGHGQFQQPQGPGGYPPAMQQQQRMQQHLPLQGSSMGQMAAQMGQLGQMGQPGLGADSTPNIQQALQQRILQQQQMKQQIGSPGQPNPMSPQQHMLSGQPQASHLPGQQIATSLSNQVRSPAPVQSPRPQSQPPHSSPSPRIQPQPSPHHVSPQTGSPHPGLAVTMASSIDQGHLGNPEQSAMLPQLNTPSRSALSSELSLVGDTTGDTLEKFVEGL
Assay: CBP degradation in 22Rv1 cells (5 h)
Format: cell-based
Conditions: 22Rv1, 5 h, 22Rv1 cells, 5 h; read-out: CBP Degradation (22Rv1, 5 h) DCmax
measured.quantity: Dmax

Example cases with answers are listed next.
>>> result("CC(=O)N1CCc2c(c(N3CCCc4cc(-c5cnn(C)c5)c(C(F)F)cc43)nn2[C@H]2CC[C@H](CN3Cc4cc5c(cc4C3)C(=O)N(C3CCC(=O)NC3=O)C5)CC2)C1 (some centres unmarked) [CP-048]")
"> 90%"
>>> result("CC(=O)N1CCc2c(c(N3CCCc4cc(-c5cnn(C)c5)c(C(F)F)cc43)nn2C[C@H]2CC[C@H](C(=O)N3Cc4cc5c(cc4C3)C(=O)N(C3CCC(=O)NC3=O)C5=O)CC2)C1 (some centres unmarked) [CP-029]")
"> 50%"
>>> result("CC(=O)N1CCc2c(c(N3CCCc4cc(-c5cnn(C)c5)c(C(F)F)cc43)nn2C2CCC(N3CCc4ccc5c(c4C3)C(=O)N(C3CCC(=O)NC3=O)C5=O)CC2)C1 (centres unmarked) [CP-087]")
"< 50%"
>>> result("CC(=O)N1CCc2c(c(N3CCCc4cc(-c5cnn(C)c5)c(C(F)F)cc43)nn2[C@H]2CC[C@H](CN3CCc4cc5c(cc4C3)C(=O)N(C3CCC(=O)NC3=O)C5=O)CC2)C1 (some centres unmarked) [CP-049]")
"> 90%"

get_value(item= Cn1cc(-c2cc3c(cc2C(F)F)N(c2nn(C4CCN(C(=O)CN5Cc6cc7c(cc6C5)C(=O)N(C5CCC(=O)NC5=O)C7=O)CC4)c4c2CN(CC(F)(F)F)CC4)CCC3)cn1 (centres unmarked) , readout=Dmax) returns < 50%

---

Below: a set of entries, each annotated with reported Dmax.
Target: CBP (Homo sapiens, UniProt Q92793)
Construct: endogenous in cells; host or cells: 22Rv1 (ATCC CRL-2505) human prostate cancer cells
Assay: CBP degradation in 22Rv1 cells (5 h)
Format: cell-based
Details: 22Rv1, 5 h, 22Rv1 cells, 5 h; read-out: CBP Degradation (22Rv1, 5 h) DCmax

Solved entries:
>>> result("CC(=O)N1CCc2c(c(N3CCCc4cc(Cl)c(C(F)F)cc43)nn2C2CCN(C(=O)CN3Cc4cc5c(cc4C3)C(=O)N(C3CCC(=O)NC3=O)C5=O)CC2)C1 (centres unmarked) [CP-017]")
"< 50%"
>>> result("Cc1noc(C)c1-c1ccc2c(c1)nc([C@@H]1CCCC(=O)N1c1ccc(F)c(F)c1)n2C1CCN(C(=O)CN2CCc3cc4c(cc3C2)C(=O)N(C2CCC(=O)NC2=O)C4=O)CC1 (some centres unmarked) [CP-063]")
"< 50%"
>>> result("CCc1cc2c(cc1C(F)F)N(c1nn(C3CCN(C(=O)CN4Cc5cc6c(cc5C4)C(=O)N(C4CCC(=O)NC4=O)C6=O)CC3)c3c1CN(C(C)=O)CC3)CCC2 (centres unmarked) [CP-012]")
"> 90%"

In plain terms, CC(=O)N1CCc2c(c(N3CCCc4cc(-c5cnn(C)c5)c(C(F)F)cc43)nn2[C@H]2CC[C@@H](CN3CCc4cc5c(cc4C3)C(=O)N(C3CCC(=O)NC3=O)C5=O)CC2)C1 (relative stereo) [CP-050] has a documented Dmax of > 90%

Input CC(=O)N1CCc2c(c(N3CCCc4ccc(C(F)F)cc43)nn2C2CCN(C(=O)CN3Cc4cc5c(cc4C3)C(=O)N(C3CCC(=O)NC3=O)C5=O)CC2)C1 (centres unmarked) [CP-010] . Output Dmax: > 70%

Value source: patent US20240150360A1
